# subjectOfTest: active mouse DPP1 enzyme (Mus musculus (Mouse), UniProt P97821)
# Sequence (P97821 25-134): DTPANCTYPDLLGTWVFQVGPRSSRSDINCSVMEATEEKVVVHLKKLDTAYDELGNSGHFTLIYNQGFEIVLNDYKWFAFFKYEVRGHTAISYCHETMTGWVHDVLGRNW
# Sequence (P97821 231-393): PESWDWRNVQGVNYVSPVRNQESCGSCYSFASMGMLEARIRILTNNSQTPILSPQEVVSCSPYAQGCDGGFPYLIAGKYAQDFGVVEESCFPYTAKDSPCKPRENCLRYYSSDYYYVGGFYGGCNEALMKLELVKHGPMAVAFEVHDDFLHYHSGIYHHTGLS
# Sequence (P97821 394-462): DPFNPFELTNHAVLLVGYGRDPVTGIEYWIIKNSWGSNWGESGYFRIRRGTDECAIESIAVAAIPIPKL
# protocolSummary: Mouse DPP1 Enzyme IC50 Assay
# Type: biochemical
# conditionNotes: mouse DPP1 enzyme; Table 16; read-out: IC50, nM; Mouse

{"compound": "N#Cc1ccc(-c2ccc(C[C@@H](C#N)NC(=O)[C@@H]3C[C@H]4COC[C@H]4N3)cc2)cc1 [drawing 1153]", "IC50": "209 nM"}
{"compound": "N#Cc1ccc(-c2ccc(C[C@@H](C#N)NC(=O)C3CNC3)cc2)cc1", "IC50": "4350 nM"}
{"compound": "Cn1c(=O)oc2ccc(-c3ccc(C[C@@H](C#N)NC(=O)[C@@H]4C[C@@H]5COC[C@@H]5N4)c(F)c3)cc21", "IC50": "41.2 nM"}
{"compound": "Cn1c(=O)oc2ccc(-c3ccc(C[C@@H](C#N)NC(=O)C4CCCCC4)cc3)cc21", "IC50": "> 5000 nM"}

----------
# subjectOfTest: active mouse DPP1 enzyme (Mus musculus (Mouse))
# protocolSummary: Mouse DPP1 Enzyme IC50 Assay
# Type: biochemical
# conditionNotes: mouse DPP1 enzyme, H-Gly-Arg-AMC substrate 400 μM; Table 13; read-out: IC50
Listing of recorded IC50 by entry.
endpointName: IC50

{"molecule": "Cn1c(=O)oc2ccc(-c3ccc(C[C@@H](C#N)NC(=O)[C@@H]4CNCCCO4)cc3)cc21 [brensocatib, reference compound]", "subjectOfTest": "active mouse DPP1 enzyme (Mus musculus (Mouse))", "result": "0.0243 µM"}
{"molecule": "Cn1c(=O)oc2ccc(-c3ccc(C[C@@H](C#N)NC(=O)[C@@H]4C[C@H]5COC[C@H]5N4)cc3)cc21 [IWD-005]", "subjectOfTest": "active mouse DPP1 enzyme (Mus musculus (Mouse))", "result": "0.0456 µM"}
{"molecule": "N#Cc1ccc(-c2ccc(C[C@@H](C#N)NC(=O)[C@@H]3C[C@H]4COC[C@H]4N3)cc2)cc1 [IWD-004]", "subjectOfTest": "active mouse DPP1 enzyme (Mus musculus (Mouse))", "result": "0.209 µM"}

----------
Listing of recorded IC50 by entry.
# subjectOfTest: Recombinant human DPP1 enzyme (Homo sapiens (Human))
# Sequence (P53634 25-134): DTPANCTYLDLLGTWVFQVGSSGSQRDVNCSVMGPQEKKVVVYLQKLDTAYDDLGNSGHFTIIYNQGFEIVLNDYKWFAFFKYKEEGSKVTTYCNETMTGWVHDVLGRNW
# Sequence (P53634 231-394): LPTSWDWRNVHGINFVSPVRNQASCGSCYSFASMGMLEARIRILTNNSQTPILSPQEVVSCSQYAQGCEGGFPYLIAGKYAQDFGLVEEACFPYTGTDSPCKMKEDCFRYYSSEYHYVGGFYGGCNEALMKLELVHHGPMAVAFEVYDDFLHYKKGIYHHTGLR
# Sequence (P53634 395-463): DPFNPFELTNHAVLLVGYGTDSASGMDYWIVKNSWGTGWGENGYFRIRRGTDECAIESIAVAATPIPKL
# protocolSummary: Human DPP1 Enzyme IC50 Assay
# Assay type: biochemical
# conditionNotes: human DPP1 enzyme; Table 16; read-out: IC50, nM; Human
endpointName: IC50 (nM)

{"compound": "Cn1c(=O)oc2ccc(-c3ccc(C[C@@H](C#N)NC(=O)[C@H]4C[C@H]5OCC[C@H]5N4)cc3)cc21", "subjectOfTest": "Recombinant human DPP1 enzyme (Homo sapiens (Human))", "qualifyingSign": "=", "quantitativeResult": 497}
{"compound": "N#Cc1ccc(-c2ccc(C[C@@H](C#N)NC(=O)[C@@H]3C[C@@H]4CCC[C@@H]4N3)c(F)c2)cc1", "subjectOfTest": "Recombinant human DPP1 enzyme (Homo sapiens (Human))", "qualifyingSign": "=", "quantitativeResult": 10.1}
{"compound": "Cn1c(=O)oc2ccc(-c3ccc(C[C@@H](C#N)NC(=O)[C@H]4C[C@@H]5COC[C@@H]5N4)cc3)cc21", "subjectOfTest": "Recombinant human DPP1 enzyme (Homo sapiens (Human))", "qualifyingSign": ">", "quantitativeResult": 5000}
{"compound": "Cn1c(=O)oc2ccc(-c3ccc(C[C@@H](C#N)NC(=O)C4CNCC45CCC5)cc3)cc21 (stereo partly drawn) [drawing 1188]", "subjectOfTest": "Recombinant human DPP1 enzyme (Homo sapiens (Human))", "qualifyingSign": "=", "quantitativeResult": 828}
{"compound": "N#Cc1ccc(-c2ccc(C[C@@H](C#N)NC(=O)C3CNC3)c(F)c2)cc1", "subjectOfTest": "Recombinant human DPP1 enzyme (Homo sapiens (Human))", "qualifyingSign": "=", "quantitativeResult": 1560}
{"compound": "N#Cc1ccc(-c2ccc(C[C@@H](C#N)NC(=O)[C@@H]3C[C@H]4C[C@H]4N3)cc2)cc1", "subjectOfTest": "Recombinant human DPP1 enzyme (Homo sapiens (Human))", "qualifyingSign": "=", "quantitativeResult": 140}
{"compound": "Cn1c(=O)oc2ccc(-c3ccc(C[C@@H](C#N)NS(=O)(=O)CCN)cc3)cc21", "subjectOfTest": "Recombinant human DPP1 enzyme (Homo sapiens (Human))", "qualifyingSign": ">", "quantitativeResult": 5000}
{"compound": "Cn1c(=O)oc2ccc(-c3ccc(C[C@@H](C#N)NC(=O)C4CCC(N)C4)cc3)cc21 (stereo partly drawn)", "subjectOfTest": "Recombinant human DPP1 enzyme (Homo sapiens (Human))", "qualifyingSign": ">", "quantitativeResult": 5000}
{"compound": "C[C@H]1NCCC[C@H]1C(=O)N[C@H](C#N)Cc1ccc(-c2ccc3oc(=O)n(C)c3c2)cc1", "subjectOfTest": "Recombinant human DPP1 enzyme (Homo sapiens (Human))", "qualifyingSign": "=", "quantitativeResult": 4480}
{"compound": "[2H]C([2H])([2H])n1c(=O)oc2ccc(-c3ccc(C[C@@H](C#N)NC(=O)C4CNC4)cc3)cc21", "subjectOfTest": "Recombinant human DPP1 enzyme (Homo sapiens (Human))", "qualifyingSign": "=", "quantitativeResult": 1510}
{"compound": "[2H]C([2H])([2H])n1c(=O)oc2ccc(-c3ccc(C[C@@H](C#N)NC(=O)C4CNC4)c(F)c3)cc21", "subjectOfTest": "Recombinant human DPP1 enzyme (Homo sapiens (Human))", "qualifyingSign": "=", "quantitativeResult": 416}
{"compound": "CO[C@H]1CNC[C@@H](C(=O)N[C@H](C#N)Cc2ccc(-c3ccc4oc(=O)n(C)c4c3)cc2)OC1", "subjectOfTest": "Recombinant human DPP1 enzyme (Homo sapiens (Human))", "qualifyingSign": "=", "quantitativeResult": 745}
{"compound": "Cn1c(=O)oc2ccc(-c3ccc(C[C@@H](C#N)NC(=O)C4CNC(C)(C)CO4)cc3)cc21 (stereo partly drawn)", "subjectOfTest": "Recombinant human DPP1 enzyme (Homo sapiens (Human))", "qualifyingSign": "=", "quantitativeResult": 360}
{"compound": "Cn1c(=O)oc2ccc(-c3ccc(C[C@@H](C#N)NC(=O)[C@@H]4C[C@@H]5COC[C@@H]5N4)cc3)cc21 [drawing 1156]", "subjectOfTest": "Recombinant human DPP1 enzyme (Homo sapiens (Human))", "qualifyingSign": "=", "quantitativeResult": 940}
{"compound": "Cn1c(=O)oc2ccc(-c3ccc(C[C@@H](C#N)NC(=O)[C@@H]4C[C@@H]5C[C@@H]5N4)cc3)cc21", "subjectOfTest": "Recombinant human DPP1 enzyme (Homo sapiens (Human))", "qualifyingSign": "=", "quantitativeResult": 189}
{"compound": "C=C1Oc2ccc(-c3ccc(C[C@@H](C#N)NC(=O)CC4(N)CCCS(=O)(=O)C4)cc3)cc2N1C (stereo partly drawn)", "subjectOfTest": "Recombinant human DPP1 enzyme (Homo sapiens (Human))", "qualifyingSign": ">", "quantitativeResult": 5000}
{"compound": "Cn1c(=O)oc2ccc(-c3ccc(C[C@@H](C#N)NC(=O)C4CNCC(O)C4)cc3)cc21 (stereo partly drawn)", "subjectOfTest": "Recombinant human DPP1 enzyme (Homo sapiens (Human))", "qualifyingSign": "=", "quantitativeResult": 2030}
{"compound": "N#Cc1ccc(-c2ccc(C[C@@H](C#N)NC(=O)C3CNC3)s2)cc1", "subjectOfTest": "Recombinant human DPP1 enzyme (Homo sapiens (Human))", "qualifyingSign": ">", "quantitativeResult": 5000}
{"compound": "Cn1c(=O)oc2ccc(-c3cc(F)c(C[C@@H](C#N)NC(=O)[C@@H]4CNCCCO4)c(F)c3)cc21", "subjectOfTest": "Recombinant human DPP1 enzyme (Homo sapiens (Human))", "qualifyingSign": "=", "quantitativeResult": 42.2}
{"compound": "Cn1c(=O)oc2ccc(-c3ccc(C[C@@H](C#N)NC(=O)[C@@H]4CNCCCO4)cc3F)cc21", "subjectOfTest": "Recombinant human DPP1 enzyme (Homo sapiens (Human))", "qualifyingSign": "=", "quantitativeResult": 186}
{"compound": "Cn1c(=O)oc2ccc(-c3ccc(C[C@@H](C#N)NC(=O)C4CNCCN4)cc3)cc21 (stereo partly drawn)", "subjectOfTest": "Recombinant human DPP1 enzyme (Homo sapiens (Human))", "qualifyingSign": ">", "quantitativeResult": 5000}
{"compound": "Cn1c(=O)oc2ccc(-c3ccc(C[C@@H](C#N)NC(=O)CC4COCCN4)cc3)cc21 (stereo partly drawn)", "subjectOfTest": "Recombinant human DPP1 enzyme (Homo sapiens (Human))", "qualifyingSign": ">", "quantitativeResult": 5000}
{"compound": "Cn1c(=O)oc2ccc(-c3ccc(C[C@@H](C#N)NC(=O)C4(CN)CCC4)cc3)cc21", "subjectOfTest": "Recombinant human DPP1 enzyme (Homo sapiens (Human))", "qualifyingSign": "=", "quantitativeResult": 3660}
{"compound": "Cn1c(=O)oc2ccc(-c3ccc(C[C@@H](C#N)NC(=O)CC4(N)CCOC4)cc3)cc21 (stereo partly drawn)", "subjectOfTest": "Recombinant human DPP1 enzyme (Homo sapiens (Human))", "qualifyingSign": "=", "quantitativeResult": 2540}
{"compound": "[2H]C([2H])([2H])n1c(=O)oc2ccc(-c3ccc(C[C@@H](C#N)NC(=O)[C@@H]4C[C@@H]5COC[C@@H]5N4)c(F)c3)cc21", "subjectOfTest": "Recombinant human DPP1 enzyme (Homo sapiens (Human))", "qualifyingSign": "=", "quantitativeResult": 102}
{"compound": "C=C1Oc2ccc(-c3ccc(C[C@@H](C#N)NC(=O)C4CNC[C@H](O)CO4)cc3)cc2N1C (stereo partly drawn)", "subjectOfTest": "Recombinant human DPP1 enzyme (Homo sapiens (Human))", "qualifyingSign": "=", "quantitativeResult": 2.3}
{"compound": "[2H]C([2H])([2H])n1c(=O)oc2ccc(-c3ccc(C[C@@H](C#N)NC(=O)C4CNC4)s3)cc21", "subjectOfTest": "Recombinant human DPP1 enzyme (Homo sapiens (Human))", "qualifyingSign": "=", "quantitativeResult": 4940}
{"compound": "N#Cc1ccc(-c2ccc(C[C@@H](C#N)NC(=O)[C@@H]3CNCCCO3)c(F)c2)cc1 [drawing 1196]", "subjectOfTest": "Recombinant human DPP1 enzyme (Homo sapiens (Human))", "qualifyingSign": "=", "quantitativeResult": 31.4}
{"compound": "[2H]C([2H])([2H])n1c(=O)oc2ccc(-c3ccc(C[C@@H](C#N)NC(=O)[C@@H]4C[C@@H]5COC[C@@H]5N4)s3)cc21", "subjectOfTest": "Recombinant human DPP1 enzyme (Homo sapiens (Human))", "qualifyingSign": "=", "quantitativeResult": 664}
{"compound": "Cn1c(=O)oc2ccc(-c3ccc(CC(C#N)NC(=O)[C@H]4CCNC[C@H]4N)cc3)cc21 (stereo partly drawn)", "subjectOfTest": "Recombinant human DPP1 enzyme (Homo sapiens (Human))", "qualifyingSign": "=", "quantitativeResult": 1310}
{"compound": "Cn1c(=O)oc2ccc(-c3ccc(C[C@@H](C#N)NC(=O)C4=CS(=O)(=O)CCNC4)cc3)cc21", "subjectOfTest": "Recombinant human DPP1 enzyme (Homo sapiens (Human))", "qualifyingSign": ">", "quantitativeResult": 5000}
{"compound": "Cn1c(=O)oc2ccc(-c3ccc(C[C@@H](C#N)NC(=O)C4CCCCC4)cc3)cc21", "subjectOfTest": "Recombinant human DPP1 enzyme (Homo sapiens (Human))", "qualifyingSign": ">", "quantitativeResult": 5000}
{"compound": "C=C1Oc2ccc(-c3ccc(C[C@@H](C#N)NC(=O)CC4(N)CCS(=O)(=O)C4)cc3)cc2N1C (stereo partly drawn)", "subjectOfTest": "Recombinant human DPP1 enzyme (Homo sapiens (Human))", "qualifyingSign": ">", "quantitativeResult": 5000}
